- TARGET ENTITY: Ba/F3-EGFR wild-type cell line (Homo sapiens, UniProt P00533)
- Sequence (P00533 whole entry, change not shown): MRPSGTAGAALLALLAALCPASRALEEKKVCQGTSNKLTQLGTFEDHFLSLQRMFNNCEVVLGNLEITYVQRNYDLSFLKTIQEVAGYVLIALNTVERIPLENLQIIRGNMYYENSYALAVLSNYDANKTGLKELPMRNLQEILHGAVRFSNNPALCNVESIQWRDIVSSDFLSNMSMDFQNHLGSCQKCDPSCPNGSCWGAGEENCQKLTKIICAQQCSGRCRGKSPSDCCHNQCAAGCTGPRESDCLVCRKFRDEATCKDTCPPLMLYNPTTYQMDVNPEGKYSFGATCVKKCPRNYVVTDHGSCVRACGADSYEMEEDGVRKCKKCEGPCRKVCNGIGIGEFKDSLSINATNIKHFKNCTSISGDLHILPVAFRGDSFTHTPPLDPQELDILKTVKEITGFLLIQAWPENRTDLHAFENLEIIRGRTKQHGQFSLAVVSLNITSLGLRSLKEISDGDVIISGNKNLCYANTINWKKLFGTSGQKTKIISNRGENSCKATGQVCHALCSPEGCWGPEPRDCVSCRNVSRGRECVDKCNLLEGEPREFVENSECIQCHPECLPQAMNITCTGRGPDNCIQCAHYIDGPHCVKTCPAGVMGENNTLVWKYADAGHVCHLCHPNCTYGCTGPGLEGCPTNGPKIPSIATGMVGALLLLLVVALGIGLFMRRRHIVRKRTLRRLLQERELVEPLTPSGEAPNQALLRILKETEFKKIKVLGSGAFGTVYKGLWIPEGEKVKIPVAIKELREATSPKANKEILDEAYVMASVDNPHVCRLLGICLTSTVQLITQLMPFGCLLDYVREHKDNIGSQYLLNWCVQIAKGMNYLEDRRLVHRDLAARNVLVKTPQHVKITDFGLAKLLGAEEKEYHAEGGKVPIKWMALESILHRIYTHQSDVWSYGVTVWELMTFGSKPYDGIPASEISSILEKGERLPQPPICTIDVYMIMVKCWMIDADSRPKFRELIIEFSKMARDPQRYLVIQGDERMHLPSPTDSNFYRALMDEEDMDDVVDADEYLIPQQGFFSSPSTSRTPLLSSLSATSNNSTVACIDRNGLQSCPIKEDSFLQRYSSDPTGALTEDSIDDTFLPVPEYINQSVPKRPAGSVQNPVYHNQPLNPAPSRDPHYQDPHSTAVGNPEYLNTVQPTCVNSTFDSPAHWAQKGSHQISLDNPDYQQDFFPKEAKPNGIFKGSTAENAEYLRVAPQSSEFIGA
- METHOD SUMMARY: Ba/F3-EGFR wild-type cell proliferation assay (CellTiter Glo, 72 hours)
- Type: cell-based
- EXPERIMENTAL CONDITIONS: Table 2, read-out: EGFR WT IC50
We begin with a simple list: items and their reported GI50.
QUANTITY MEASURED: GI50 (nM)

compound="CCc1cc(Nc2ncc(Br)c(Nc3ccc(-c4ccccc4F)cc3P(C)(C)=O)n2)c(OC)cc1N1CCC(N2CCOCC2)CC1 [Compound K-048]" unit_info=nM result_number=156
compound="CCOc1cnc(-c2ccc(Nc3nc(Nc4cc(CC)c(N5CCC(N6CCN(C)CC6)CC5)cc4OC)ncc3Br)c(P(C)(C)=O)c2)nc1 [Compound 75]" unit_info=nM result_number=1010
compound="CCc1cc(Nc2ncc(Br)c(Nc3ccc(-n4cc(OC)cn4)cc3P(C)(C)=O)n2)c(OC)cc1N1CCC(N2CCN(C)CC2)CC1 [Compound K-054]" unit_info=nM result_number=343
compound="COc1cc(N2CCN(C)CC2)c(C)cc1Nc1ncc(Br)c(Nc2ccc(-c3nccs3)cc2P(C)(C)=O)n1 [Compound K-029]" unit_info=nM result_number=52.1
compound="C#Cc1cnc(-c2ccc(Nc3nc(Nc4cc(C)c(N5CCC(N6CCN(C)CC6)CC5)cc4OC)ncc3Br)c(P(C)(C)=O)c2)cn1 [Compound K-011]" unit_info=nM result_number=81.8
compound="CCc1cc(Nc2ncc(Br)c(Nc3ccc(-c4cnn(C)n4)c(F)c3P(C)(C)=O)n2)c(OC)cc1N1CCC(N2CCN(C)CC2)CC1 [Compound K-007]" unit_info=nM result_number=130
compound="CCc1cc(Nc2ncc(Br)c(Nc3ccc(-c4cnc(N(C)C)cn4)cc3P(C)(C)=O)n2)c(OC)cc1N1CCC(N2CCN(C)CC2)CC1 [Compound 35]" unit_info=nM result_number=259
compound="COc1cnn(-c2ccc(Nc3nc(Nc4cc(OC)c(N5CCC(O)CC5)cc4C)ncc3Br)c(P(C)(C)=O)c2)c1 [Compound K-039]" unit_info=nM result_number=523
compound="CCc1cc(Nc2ncc(Br)c(Nc3ccc(-c4cnn(C(F)F)n4)cc3P(C)(C)=O)n2)c(OC)cc1N1CCC(N2CCN(C)CC2)CC1 [Compound K-006]" unit_info=nM result_number=180

From: patent US20220402948A1
